# tested.target: Chk1 (Homo sapiens, UniProt O14757)
# Construct: purchased Upstate Biotechnology
# assay.procedure: Chk1 assay: incorporation of γ-33P ATP into immobilized myelin basic protein
# Format: biochemical
# measurement.conditions: Table 11; Chk1 only
quantity.name: IC50

Examples with answers:
Nc1ncc(-c2ccccc2)nc1C(=O)N[C@@H]1CCc2ccccc21 [compound 4]; > 10 µM
CC(=O)NCCNC(=O)c1nc(-c2ccccc2)cnc1N [compound 47]; > 10 µM
NC(=O)c1cccc(-c2cnc(N)c(C(N)=O)n2)c1 [compound 29]; 1 to 10 µM
Nc1ncc(-c2ccccc2)nc1C(=O)NCC1CC1 [compound 12]; > 10 µM

Prompt line: # query: IC50 of entry Cc1cccc(-c2cnc(N)c(C(N)=O)n2)c1 [compound 33]
Response line: 1 to 10 µM

* * *

Listing of recorded pIC50 by entry.
# tested.target: Chk1 (Homo sapiens)
# Construct: purchased Upstate Biotechnology
# Sequence (O14757 1-476): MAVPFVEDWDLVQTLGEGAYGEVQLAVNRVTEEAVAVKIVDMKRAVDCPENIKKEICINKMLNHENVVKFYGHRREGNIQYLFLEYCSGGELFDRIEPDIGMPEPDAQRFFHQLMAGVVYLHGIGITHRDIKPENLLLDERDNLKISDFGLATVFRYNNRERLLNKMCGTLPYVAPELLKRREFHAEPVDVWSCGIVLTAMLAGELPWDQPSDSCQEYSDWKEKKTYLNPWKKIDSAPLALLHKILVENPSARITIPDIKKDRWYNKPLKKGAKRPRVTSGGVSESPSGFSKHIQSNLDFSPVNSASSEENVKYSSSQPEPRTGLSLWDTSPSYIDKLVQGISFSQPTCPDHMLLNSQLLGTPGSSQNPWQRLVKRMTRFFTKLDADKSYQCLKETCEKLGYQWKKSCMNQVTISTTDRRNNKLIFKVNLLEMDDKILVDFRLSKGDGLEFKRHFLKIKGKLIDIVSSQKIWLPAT
# assay.procedure: Chk1 assay: incorporation of γ-33P ATP into immobilized myelin basic protein
# Type: biochemical
# measurement.conditions: Table 11; Chk1 only
pIC50: −log10 of the molar value.

COCCNC(=O)c1nc(-c2ccccc2)cnc1N; 5.00 to 6.00
CNC(=O)c1nc(-c2cccnc2)cnc1N; 5.00 to 6.00
CNC(=O)c1nc(-c2cccc(O)c2)cnc1N; 6.00 to 7.30
COc1cccc(-c2cnc(N)c(C(N)=O)n2)c1; 5.00 to 6.00
Nc1ncc(-c2ccccc2)nc1C(=O)NC1Cc2ccccc2C1; < 5.00
NC(=O)c1nc(-c2cccc(-c3ccccc3)c2)cnc1N; 6.00 to 7.30

Prompt line: # query: pIC50 of entry NC(=O)c1nc(-c2cccc(C(=O)O)c2)cnc1N
Response line: < 5.00

Prompt line: # query: pIC50 of entry CNC(=O)c1nc(-c2cccc(OCc3ccccc3)c2)cnc1N
Response line: 5.00 to 6.00

* * *

# tested.target: Chk1 (Homo sapiens)
# Construct: purchased Upstate Biotechnology
# assay.procedure: Chk1 assay: incorporation of γ-33P ATP into immobilized myelin basic protein
# Type: biochemical
# measurement.conditions: Table 11; Chk1 only
pIC50: −log10 of the molar value.
Listing of recorded pIC50 by entry.

Examples with answers:
CNC(=O)c1nc(-c2noc(C)n2)cnc1N [compound 71]; 5.00 to 6.00
NC(=O)c1nc(-c2cccc(Cl)c2)cnc1N [compound 3]; < 5.00
NC(=O)c1nc(-c2ccc(OCc3ccccc3)cc2)cnc1N [compound 43]; < 5.00
CNC(=O)c1cccc(-c2cnc(N)c(C(=O)NC)n2)c1 [compound 64]; 5.00 to 6.00
CNC(=O)c1nc(-c2cccc(NC(C)=O)c2)cnc1N [compound 56]; 6.00 to 7.30
Nc1ncc(-c2ccccc2)nc1C(=O)NCCc1ccccc1 [compound 1]; < 5.00
NC(=O)c1nc(-c2ccccc2Cl)cnc1N [compound 7]; < 5.00
CNC(=O)c1nc(-c2noc(C3CCCCC3)n2)cnc1N [compound 68]; < 5.00

Prompt line: Reported pIC50 for Chk1 (Homo sapiens), given CNC(=O)c1nc(-c2cccc(C(=O)NCc3ccc(C(C)(C)C)cc3)c2)cnc1N [compound 353] ?
Response line: 6.00 to 7.30

Prompt line: Reported pIC50 for Chk1 (Homo sapiens), given Cc1cccc(-c2cnc(N)c(C(=O)NCCO)n2)c1 [compound 329] ?
Response line: 5.00 to 6.00

Prompt line: Reported pIC50 for Chk1 (Homo sapiens), given CN(C)C(=O)c1nc(-c2ccccc2)cnc1N [compound 9] ?
Response line: 5.00 to 6.00

Prompt line: Reported pIC50 for Chk1 (Homo sapiens), given CC(=O)Nc1cccc(-c2cnc(N)c(C(N)=O)n2)c1 [compound 30] ?
Response line: 5.00 to 6.00

Prompt line: Reported pIC50 for Chk1 (Homo sapiens), given COC(=O)c1cccc(-c2cnc(N)c(C(N)=O)n2)c1 [compound 34] ?
Response line: 5.00 to 6.00
